Reference source: the supplement of paper PMC10598134

Experiment: collision cross section of modified peptide (TIMS, N2, iRT-aligned); higher = larger / more extended gas-phase ion
Reported Conditions: charge state: 2; modification: Acetyl (K)
Parameter threshold = 400 Å². Response is t when collision cross section meets or exceeds it, else f.

• LTEKELAEAASK [_LTEK(Acetyl (K))ELAEAASK_] = f
• VGVEVPDVNIEGPEGKLK [_VGVEVPDVNIEGPEGK(Acetyl (K))LK_] = t
• TLDEILQEKK [_TLDEILQEK(Acetyl (K))K_] = f

Given the entry ANLEKAQAELVGTADEATR [_ANLEK(Acetyl (K))AQAELVGTADEATR_] , answer whether its collision cross section meets or surpasses 400 Å². t

Given the entry LQLEIDQKK [_LQLEIDQK(Acetyl (K))K_] , answer whether its collision cross section meets or surpasses 400 Å². f

Given the entry VLTANSNPSSPSAAKR [_VLTANSNPSSPSAAK(Acetyl (K))R_] , answer whether its collision cross section meets or surpasses 400 Å². t

Given the entry FLQEFYQDDELGKK [_FLQEFYQDDELGK(Acetyl (K))K_] , answer whether its collision cross section meets or surpasses 400 Å². t

Given the entry LEQVEKELLR [_LEQVEK(Acetyl (K))ELLR_] , answer whether its collision cross section meets or surpasses 400 Å². f

Given the entry IINEPTAAAIAYGLDKK [_IINEPTAAAIAYGLDK(Acetyl (K))K_] , answer whether its collision cross section meets or surpasses 400 Å². t

Given the entry ASNAAVKLAESK [_ASNAAVK(Acetyl (K))LAESK_] , answer whether its collision cross section meets or surpasses 400 Å². f

Given the entry IQTKAGEATVK [_IQTK(Acetyl (K))AGEATVK_] , answer whether its collision cross section meets or surpasses 400 Å². f

Given the entry LLEEEDSKLK [_LLEEEDSK(Acetyl (K))LK_] , answer whether its collision cross section meets or surpasses 400 Å². f

Given the entry SGFGKFER [_SGFGK(Acetyl (K))FER_] , answer whether its collision cross section meets or surpasses 400 Å². f

Given the entry IGNSYFKEEK [_IGNSYFK(Acetyl (K))EEK_] , answer whether its collision cross section meets or surpasses 400 Å². f

Given the entry VDVEVPDVSLEGPEGKLK [_VDVEVPDVSLEGPEGK(Acetyl (K))LK_] , answer whether its collision cross section meets or surpasses 400 Å². t

Given the entry DYSSGFGGKYGVQADR [_DYSSGFGGK(Acetyl (K))YGVQADR_] , answer whether its collision cross section meets or surpasses 400 Å². t

Given the entry LDEKENLSAK [_LDEK(Acetyl (K))ENLSAK_] , answer whether its collision cross section meets or surpasses 400 Å². f

Given the entry VPTTEKPTVTVNFR [_VPTTEK(Acetyl (K))PTVTVNFR_] , answer whether its collision cross section meets or surpasses 400 Å². t
